# Tested on: BT-20 (ER neg)
# measurement-notes: Cell proliferation assay (CellTiter Glo), BT-20
# Assay type: cell-based
# condition: Homo sapiens, BT-20, 168 h; 7 Day assay, charcoal stripped serum, no phenol red, 10 nM estrogen; plateau cell number at 5 μM used; read-out: IC50 (uM) E2
measure-name: IC50
Please answer in the form of a number followed by its unit of measurement.

[Q] Param readout = IC50; param system = BT-20 (ER neg); param query = COc1cc(Nc2c(C#N)cnc3cc(OCCCN4CCN(C)CC4)c(OC)cc23)c(Cl)cc1Cl ; response: value
[A] 0.24 µM

====

# Test system: MDA-MB-231 (ER neg)
# measurement-notes: Cell proliferation assay (CellTiter Glo), MDA-MB-231
# Type: cell-based
# condition: Homo sapiens, MDA-MB-231, 168 h; 7 Day assay, charcoal stripped serum, no phenol red, 10 nM estrogen; read-out: IC50 (uM) E2
measure-name: IC50 (µM)
Answers are plain numbers, in µM.

[Q] Param readout = IC50; param system = MDA-MB-231 (ER neg); param query = COc1cc(Nc2c(C#N)cnc3cc(OCCCN4CCN(C)CC4)c(OC)cc23)c(Cl)cc1Cl [bosutinib] ; response: value
[A] 5.05

Data origin, for the record: patent US20100069340A1
